System: Bacteria
Experiment: Antibacterial activity was determined against gram negative organism, Providencia rettgeri. M1771
Type: functional
Settings: Bacteria; read-out: MIC
Threshold check on MIC: strictly below 0.2 µg/mL is Yes; on or above 0.2 µg/mL is No.

[
  {
    "compound": "CCNCC1CCN(c2c(F)cc3c(=O)c(C(=O)O)cn(CC)c3c2F)C1 (centres undefined)",
    "assigned.class": "No"
  },
  {
    "compound": "Nc1c(F)c(N2CCC(N)C2)c(Cl)c2c1c(=O)c(C(=O)O)cn2C1CC1 (centres undefined)",
    "assigned.class": "Yes"
  },
  {
    "compound": "CCn1cc(C(=O)O)c(=O)c2cc(F)c(N3CCNCC3)cc21",
    "assigned.class": "Yes"
  },
  {
    "compound": "CCn1cc(C(=O)O)c(=O)c2cc(F)c(N3CC(C)NC(C)C3)c(F)c21 (centres undefined)",
    "assigned.class": "No"
  },
  {
    "compound": "CC1COc2c(N3CCC(N)C3)c(F)cc3c(=O)c(C(=O)O)cn1c23 (centres undefined)",
    "assigned.class": "No"
  },
  {
    "compound": "O=C(O)c1cn(C2CC2)c2cc(N3CCNCC3)c(F)cc2c1=O",
    "assigned.class": "Yes"
  }
]

----------
Molecular target: DNA gyrase (Escherichia coli) (UniProt P0AES6+P0AES4)
Assay: Minimum inhibitory concentration against Escherichia coli DNA-gyrase in supercoiling assay
Type: functional

[
  {
    "compound": "CCNCC1CCN(c2cc3c(cc2F)c(=O)c(C(=O)O)cn3CC)C1 (stereo unspecified)",
    "MIC": "2.5 µg/mL"
  },
  {
    "compound": "CCNCC1CCN(c2c(F)c(O)c3c(=O)c(C(=O)O)cn(CC)c3c2F)C1 (stereo unspecified)",
    "MIC": "2.5 µg/mL"
  },
  {
    "compound": "Nc1c(F)c(N2CCNCC2)cc2c1c(=O)c(C(=O)O)cn2C1CC1",
    "MIC": "1 µg/mL"
  },
  {
    "compound": "O=C(O)c1cn(C2CC2)c2c(F)c(N3CCNCC3)c(F)cc2c1=O",
    "MIC": "0.5 µg/mL"
  },
  {
    "compound": "CCNCC1CCN(c2c(F)c(N)c3c(=O)c(C(=O)O)cn(C4CC4)c3c2F)C1 (stereo unspecified)",
    "MIC": "0.5 µg/mL"
  },
  {
    "compound": "CCNCC1CCN(c2c(F)c(N)c3c(=O)c(C(=O)O)cn(CC)c3c2Cl)C1 (stereo unspecified)",
    "MIC": "2.5 µg/mL"
  },
  {
    "compound": "CC1CN(c2c(F)cc3c(=O)c(C(=O)O)cn(C4CC4)c3c2F)CCN1 (stereo unspecified)",
    "MIC": "1 µg/mL"
  },
  {
    "compound": "CCNCC1CCN(c2c(F)cc3c(=O)c(C(=O)O)cn(C4CC4)c3c2Cl)C1 (stereo unspecified)",
    "MIC": "0.25 µg/mL"
  },
  {
    "compound": "CC1CN(c2cc3c(c(N)c2F)c(=O)c(C(=O)O)cn3C2CC2)CCN1 (stereo unspecified)",
    "MIC": "0.5 µg/mL"
  },
  {
    "compound": "CCNCC1CCN(c2cc3c(c(N)c2F)c(=O)c(C(=O)O)cn3CC)C1 (stereo unspecified)",
    "MIC": "7.5 µg/mL"
  },
  {
    "compound": "CC1CN(c2c(F)c(N)c3c(=O)c(C(=O)O)cn(C4CC4)c3c2F)CCN1 (stereo unspecified)",
    "MIC": "1 µg/mL"
  },
  {
    "compound": "CCn1cc(C(=O)O)c(=O)c2c(O)c(F)c(N3CCNCC3)c(F)c21",
    "MIC": "5 µg/mL"
  },
  {
    "compound": "CCNCC1CCN(c2cc3c(cc2F)c(=O)c(C(=O)O)cn3C2CC2)C1 (stereo unspecified)",
    "MIC": "1 µg/mL"
  },
  {
    "compound": "CCNCC1CCN(c2cc3c(c(N)c2F)c(=O)c(C(=O)O)cn3C2CC2)C1 (stereo unspecified)",
    "MIC": "1 µg/mL"
  },
  {
    "compound": "CCn1cc(C(=O)O)c(=O)c2cc(F)c(N3CC(C)NC(C)C3)c(Cl)c21 (stereo unspecified)",
    "MIC": "5 µg/mL"
  },
  {
    "compound": "CCn1cc(C(=O)O)c(=O)c2c(N)c(F)c(N3CCNCC3)cc21",
    "MIC": "2.5 µg/mL"
  },
  {
    "compound": "CCn1cc(C(=O)O)c(=O)c2cc(F)c(N3CCC(N)C3)c(Cl)c21 (stereo unspecified)",
    "MIC": "2.5 µg/mL"
  },
  {
    "compound": "CCn1cc(C(=O)O)c(=O)c2c(N)c(F)c(N3CCNCC3)c(F)c21",
    "MIC": "2.5 µg/mL"
  },
  {
    "compound": "CC1CN(c2c(F)c(O)c3c(=O)c(C(=O)O)cn(C4CC4)c3c2F)CCN1 (stereo unspecified)",
    "MIC": "0.5 µg/mL"
  },
  {
    "compound": "Nc1c(F)c(N2CCC(N)C2)c(F)c2c1c(=O)c(C(=O)O)cn2C1CC1 (stereo unspecified)",
    "MIC": "0.5 µg/mL"
  },
  {
    "compound": "CCNCC1CCN(c2c(F)c(N)c3c(=O)c(C(=O)O)cn4c3c2OCC4C)C1 (stereo unspecified)",
    "MIC": "7.5 µg/mL"
  }
]

----------
The entries below come with measured MIC values attached.
System: Bacteria
Experiment: Antibacterial activity was determined against gram negative organism, Providencia rettgeri. M1771
Assay type: functional
Details: Bacteria; read-out: MIC

[
  {
    "compound": "CC1CN(c2c(F)c(O)c3c(=O)c(C(=O)O)cn(C4CC4)c3c2F)CCN1 (stereo unspecified)",
    "MIC, µg/mL": 0.2
  },
  {
    "compound": "CCNCC1CCN(c2c(F)cc3c(=O)c(C(=O)O)cn4c3c2OCC4C)C1 (stereo unspecified)",
    "MIC, µg/mL": 0.8
  },
  {
    "compound": "CCn1cc(C(=O)O)c(=O)c2c(N)c(F)c(N3CC(C)NC(C)C3)c(F)c21 (stereo unspecified)",
    "MIC, µg/mL": 3.1
  },
  {
    "compound": "CCn1cc(C(=O)O)c(=O)c2c(N)c(F)c(N3CC(C)NC(C)C3)c(Cl)c21 (stereo unspecified)",
    "MIC, µg/mL": 6.3
  },
  {
    "compound": "CCNCC1CCN(c2c(F)c(N)c3c(=O)c(C(=O)O)cn4c3c2OCC4C)C1 (stereo unspecified)",
    "MIC, µg/mL": 3.1
  },
  {
    "compound": "NC1CCN(c2c(F)cc3c(=O)c(C(=O)O)cn(C4CC4)c3c2F)C1 (stereo unspecified)",
    "MIC, µg/mL": 0.05
  },
  {
    "compound": "CCn1cc(C(=O)O)c(=O)c2cc(F)c(N3CC(C)NC(C)C3)cc21 (stereo unspecified)",
    "MIC, µg/mL": 0.8
  },
  {
    "compound": "CC1CN(c2cc3c(c(N)c2F)c(=O)c(C(=O)O)cn3-c2ccc(F)cc2F)CCN1 (stereo unspecified)",
    "MIC, µg/mL": 0.4
  },
  {
    "compound": "CCn1cc(C(=O)O)c(=O)c2c(O)c(F)c(N3CCNC(C)C3)c(F)c21 (stereo unspecified)",
    "MIC, µg/mL": 1.6
  },
  {
    "compound": "CCNCC1CCN(c2cc3c(cc2F)c(=O)c(C(=O)O)cn3CC)C1 (stereo unspecified)",
    "MIC, µg/mL": 1.6
  },
  {
    "compound": "CCNCC1CCN(c2c(F)c(N)c3c(=O)c(C(=O)O)cn(C4CC4)c3c2F)C1 (stereo unspecified)",
    "MIC, µg/mL": 0.1
  },
  {
    "compound": "Nc1c(F)c(N2CCNCC2)c(F)c2c1c(=O)c(C(=O)O)cn2C1CC1",
    "MIC, µg/mL": 0.05
  },
  {
    "compound": "CC1CN(c2cc3c(c(N)c2F)c(=O)c(C(=O)O)cn3C2CC2)CCN1 (stereo unspecified)",
    "MIC, µg/mL": 0.1
  },
  {
    "compound": "CCNCC1CCN(c2c(F)c(N)c3c(=O)c(C(=O)O)cn(CC)c3c2F)C1 (stereo unspecified)",
    "MIC, µg/mL": 1.6
  },
  {
    "compound": "NC1CCN(c2c(F)c(O)c3c(=O)c(C(=O)O)cn(C4CC4)c3c2F)C1 (stereo unspecified)",
    "MIC, µg/mL": 0.05
  },
  {
    "compound": "CCn1cc(C(=O)O)c(=O)c2cc(F)c(N3CCC(N)C3)cc21 (stereo unspecified)",
    "MIC, µg/mL": 0.2
  },
  {
    "compound": "Nc1c(F)c(N2CCNCC2)c(Cl)c2c1c(=O)c(C(=O)O)cn2C1CC1",
    "MIC, µg/mL": 0.1
  },
  {
    "compound": "CCn1cc(C(=O)O)c(=O)c2c(N)c(F)c(N3CCC(N)C3)c(F)c21 (stereo unspecified)",
    "MIC, µg/mL": 0.4
  },
  {
    "compound": "CCn1cc(C(=O)O)c(=O)c2c(N)c(F)c(N3CCNC(C)C3)c(F)c21 (stereo unspecified)",
    "MIC, µg/mL": 1.6
  },
  {
    "compound": "CC1CN(c2cc3c(cc2F)c(=O)c(C(=O)O)cn3C2CC2)CCN1 (stereo unspecified)",
    "MIC, µg/mL": 0.1
  },
  {
    "compound": "O=C(O)c1cn(C2CC2)c2c(F)c(N3CCNCC3)c(F)cc2c1=O",
    "MIC, µg/mL": 0.1
  }
]

Ref: ChEMBL document CHEMBL1125826
